Data provenance: PubChem BioAssay (NCI)

system: HS 578T breast; test: NCI tumour cell line growth inhibition, 48 h
Reported Property: TGI

*Q* Supply reported TGI belonging to this compound: NNc1nc(-c2ccccn2)nc2sc3c(c12)CCCCCC3
*A* > 100 µM

*Q* Supply reported TGI belonging to this compound: Clc1cccc(Cc2cn3cc(-c4ccccc4)nc3s2)c1
*A* > 100 µM

*Q* Supply reported TGI belonging to this compound: COc1ccc2nc(-c3ccc(O)cc3)cn2c1
*A* > 100 µM

*Q* Supply reported TGI belonging to this compound: COC(=O)C12OCC34C(CC5C(C)=CC(=O)C(O)C5(C)C3C(O)C1O)OC(=O)C(OC(=O)CC(C)C)C24 (configuration not stated)
*A* 0.000948 µM

*Q* Supply reported TGI belonging to this compound: OCCCNC(=S)Nc1ccc(-c2nc3ccccc3s2)cc1
*A* > 100 µM

*Q* Supply reported TGI belonging to this compound: Cc1ccc(C(=O)Nc2ccc(CP(=O)(O)O)cc2)cc1NC(=O)Nc1cc(C(=O)Nc2ccc(CP(=O)(O)O)cc2)ccc1C
*A* > 100 µM

*Q* Supply reported TGI belonging to this compound: COc1cc([C@@H]2c3cc4c(cc3[C@H](O)[C@H]3COC(=O)[C@@H]23)OCO4)cc(OC)c1OC
*A* > 5.83 µM

*Q* Supply reported TGI belonging to this compound: O=C1C=CC(=O)N1CCCCCCCCCCN1C(=O)C=CC1=O
*A* 56.9 µM

*Q* Supply reported TGI belonging to this compound: NS(=O)(=O)c1ccc(NCc2cnc3ccccc3c2)cc1
*A* > 100 µM

*Q* Supply reported TGI belonging to this compound: CCC(CCCCC1CC[C@H]2CC(=O)C[C@@H]12)OC (some centres not stated)
*A* > 100 µM

*Q* Supply reported TGI belonging to this compound: O=C(CN1C(=O)c2ccccc2C1=O)OCC1CCCN2CCCCC12 (configuration not stated)
*A* > 100 µM

*Q* Supply reported TGI belonging to this compound: COc1ccc(C2SC(C)C(=O)N2NC(=O)C(O)c2ccccc2)cc1 (configuration not stated)
*A* > 100 µM

*Q* Supply reported TGI belonging to this compound: O=C(CN/C=C\C(=O)c1cc(Cl)ccc1Cl)c1ccccc1
*A* 61.3 µM

*Q* Supply reported TGI belonging to this compound: COc1ccc(OC)c2c3c(ncc12)-c1cc2c(cc1C3)OCO2
*A* 62.1 µM

*Q* Supply reported TGI belonging to this compound: CC(C)(C)OC(=O)N1C(=O)OC[C@@H]2C=C[C@@H]21
*A* > 100 µM

*Q* Supply reported TGI belonging to this compound: Nc1nn(C(=O)Nc2ccc(Cc3ccccc3)cc2)c2ccccc12
*A* 71.8 µM

*Q* Supply reported TGI belonging to this compound: CC1(C)OC([C@H](O)CO)C([C@H]2NCCS2)O1 (some centres not stated)
*A* > 100 µM

*Q* Supply reported TGI belonging to this compound: N=c1c2c(=O)n3c(nc2nc2sc4ccc(Cl)cc4n12)-c1ccccc1Sc1ccccc1-3
*A* 10.1 µM

*Q* Supply reported TGI belonging to this compound: O=CNc1ccc2c(c1)Cc1cc([N+](=O)[O-])ccc1-2
*A* 5.16 µM

*Q* Supply reported TGI belonging to this compound: COc1ccc(N2C(=O)CC(c3c[nH]c4ccccc34)C2=O)cc1 (configuration not stated)
*A* > 100 µM

*Q* Supply reported TGI belonging to this compound: C[C@H]1[C@H](C)CC[C@]2(C(=O)O)CC[C@]3(C)C(=CC[C@@H]4[C@@]5(C)CC[C@H](OC(=O)/C=C\c6ccc(O)cc6)C(C)(C)[C@@H]5CC[C@]43C)[C@H]12
*A* 22.6 µM

*Q* Supply reported TGI belonging to this compound: CC(=O)O[C@@H]1CC(=O)O[C@@H]2C[C@@H](CC/C(Cl)=C/C/C=C\1C)O[C@@H]2CO
*A* > 25 µM

*Q* Supply reported TGI belonging to this compound: N=C(N)c1ccc(-c2ccc(-c3ccc(C(=N)N)cc3)o2)cc1
*A* 56.9 µM

*Q* Supply reported TGI belonging to this compound: CCOC(=O)C1C(=O)CC(C)(O)C(C(=O)OCC)C1c1ccc(OC)cc1 (configuration not stated)
*A* > 100 µM

*Q* Supply reported TGI belonging to this compound: O=C1c2ccc3ccccc3c2CCC1N1CCCCC1 (configuration not stated)
*A* 44.9 µM

*Q* Supply reported TGI belonging to this compound: CCCCN1C(=O)C[C@H]2[C@@H]3CCc4cc(OCCN5CCCC5)ccc4[C@H]3CC[C@]2(C)C1=O
*A* 39.8 µM

*Q* Supply reported TGI belonging to this compound: C(=N/Nc1ccccn1)/c1cccnc1
*A* > 100 µM

*Q* Supply reported TGI belonging to this compound: O=C1/C(=C/c2cccc([N+](=O)[O-])c2)N=C(c2ccccc2)N1c1ccc2c(c1)Sc1cc(N3C(=O)/C(=C/c4cccc([N+](=O)[O-])c4)N=C3c3ccccc3)ccc1N2
*A* > 100 µM

*Q* Supply reported TGI belonging to this compound: CC1=NN(c2ccccc2)C(=O)C1C(=O)C(=O)Nc1ccc(C)cc1C (configuration not stated)
*A* > 100 µM

*Q* Supply reported TGI belonging to this compound: C=C1C(=O)O[C@H]2[C@H]3O[C@@H](C[C@@H]12)[C@](C)(O)CCCC(C)=CCC[C@H]3C
*A* 29.2 µM

*Q* Supply reported TGI belonging to this compound: O=S(=O)(c1ccccc1)C1CN(Cc2ccccc2)CCN(Cc2ccccc2)C1
*A* > 100 µM

*Q* Supply reported TGI belonging to this compound: CCOC(=O)C1=C(N)Oc2cc(OC)ccc2C1c1ccc(F)c(F)c1 (configuration not stated)
*A* 21.3 µM

*Q* Supply reported TGI belonging to this compound: CCC1CCN=C(Cn2cc(C)c(=O)[nH]c2=O)N1 (configuration not stated)
*A* > 100 µM

*Q* Supply reported TGI belonging to this compound: Nc1nc(Cl)cc(NCC2(CO)CC(Cc3ccccc3)C2)n1 (configuration not stated)
*A* > 100 µM

*Q* Supply reported TGI belonging to this compound: O=C(O)CCCC#CCCCC(=O)O
*A* > 100 µM

*Q* Supply reported TGI belonging to this compound: c1ccc(-c2cc(-c3cc(-c4ccccc4)no3)on2)cc1
*A* > 100 µM

*Q* Supply reported TGI belonging to this compound: CC(C)=CCC/C(C)=C/CC/C(C)=C/CC/C(C=O)=C/CC/C(C)=C\CC/C(C)=C/CC/C(C)=C/CC/C(C)=C/CC1=CC(=O)C=CC1=O
*A* > 100 µM
